- System: COLO 205 colon
- ASSAY_INFO: NCI-60 one-dose screen, 48 h (100 = growth as untreated, 0 = no growth, -100 = all killed)
- CONDITION_PARAMETERS: 10 µM unless noted
- Description: Cells are grown in 96 well plates and exposed to the test compound for 48 hours. Compounds are tested at a single concentration, which is 10^-5 M for most compounds. The reported endpoint is percent growth (GI% or GIPRCNT), where numbers from 0 - 100% represent growth inhibition, and numbers from -100% - 0 represent cell death. For example, a value of 40 represents 60% growth inhibition. A value of 0 means no net growth occurred over the course of the experiment. […]
Compounds without any hit were thinned out: in the full panel of roughly 83,000, 20% have a hit. Calls of active or inactive are those of the source. The calls were made as follows: active = growth percent below 10; inactive = the rest.
QUANTITY_KIND: growth

• Cc1ccccc1NC(=O)NC(CC(N)=O)c1ccc2c(c1)nc(-c1cccc(Oc3ccc(C(C)(C)C)cc3)c1)n2CCCN1CCCCC1C (centres undefined) = -65.6% (active)
• Cc1nn(-c2ccccc2)c2nc(N)c(C3=NCCO3)nc12 = 94.1% (inactive)
• Cc1cc2c(cc1C)[n+](Cc1ccc3ccccc3c1)cn2Cc1ccc2ccccc2c1 = -67.8% (active)
• O=C(Nc1nc2ccc(OC(F)(F)F)cc2s1)c1ccc(F)cc1 = -17.4% (active)

====

- Test system: DU-145 prostate
- ASSAY_INFO: NCI-60 one-dose screen, 48 h
- CONDITION_PARAMETERS: 10 µM unless noted
Compounds without any hit were thinned out: in the full panel of roughly 83,000, 20% have a hit. Activity calls are given as the source filed them. Rule for the calls: active = growth percent below 10; inactive = the rest.
Classes used: label 1 = active, label 0 = inactive

• CN1C(=O)C(C2=NN(C=O)C(c3ccc(F)cc3)C2)C(=O)N(C)C1=O (configuration not stated) = label 0
• Fc1ccc(-c2nn3c(-c4cc(C(F)(F)F)cc(C(F)(F)F)c4)nnc3s2)cc1 = label 0
• CC1C(C)N(C(=O)CCl)c2ccccc2N1C(=O)CCl (configuration not stated) = label 1
• O=c1[nH]c(SCc2ccccc2)nc2nc(Nc3ccc(NC(=S)Nc4ccccc4)cc3)nc(-c3ccc(O)cc3O)c12 = label 0
• COc1ccc(-c2nnc3c4[nH]cnc4ncn23)c(OC)c1 = label 0
• Cc1sc2nc(N3CCCCC3)[nH]c(=O)c2c1C = label 0
• CC(=O)c1ccc(NS(=O)(=O)c2ccc([N+](=O)[O-])cc2)cc1 = label 0
• O=[N+]([O-])c1ccc2[nH]cc(-c3c4ccccc4cc4[nH]c5ccc([N+](=O)[O-])cc5c34)c2c1 = label 0
• CC(C)OP(=O)(OC(C)C)c1ncc(-c2ccc(C(F)(F)F)cc2)c(NC2CCCCCC2)n1 = label 1
• N#Cc1ncc(-c2ccc(C(F)(F)F)cc2)c(NC2CCCCCC2)n1 = label 0
• Cc1nn2c(/C=C3/C(=O)Nc4cc(Cl)ccc43)c(-c3ccccc3)nc2s1 = label 0
• Cc1ccc2nc3c(n2c1)C(=O)C(=O)c1ccccc1-3 = label 1

====

- Tested on: NCI-H226 lung
- ASSAY_INFO: NCI-60 one-dose screen, 48 h (100 = growth as untreated, 0 = no growth, -100 = all killed)
- CONDITION_PARAMETERS: 10 µM unless noted
The panel holds about 83,000 compounds, 20% with a hit somewhere; the sample as a whole holds those more often.
Reported growth values for the following compounds.
QUANTITY_KIND: growth (%)

• CCOC(=O)CNC(=O)C1(NC(=O)CNC(=O)OCc2ccccc2)CCCC1 = 115
• Nc1ccc2c(c1Br)Cc1ccccc1-2 = 104
• COc1cc(C(=O)c2cc3c(cc2C)OCO3)cc(OC)c1OC = 45.4
• COc1cc(/C=C2\CN(S(=O)(=O)c3ccc(C)cc3)C/C(=C\c3cc(CN4CCOCC4)c(O)c(OC)c3)C2=O)cc(CN2CCOCC2)c1O = -40.2
• Cc1sc2nc3c4ccccc4c(NCCCN(C)C)nn3c(=O)c2c1C = 42.8
• COc1cccc(CCN2C(=O)CCC3=C2CCC3=O)c1 = 97.4
